system: IGROV1 ovarian; test: NCI tumour cell line growth inhibition, 48 h
Each record here notes measured TGI.

1) O=C(N/N=C\c1cccc2ccccc12)Nc1cccc2ccccc12 : > 100 µM

Enter reported TGI observed with IGROV1 ovarian for "C[C@H]1COCCN1c1cc(C2(S(=O)(=O)C3CC3)CC2)nc(-c2ccc(NC(=S)NCCO)cc2)n1" 0.119 µM

Enter reported TGI observed with IGROV1 ovarian for "S=c1nc(N/N=C/c2cccs2)c2cn[nH]c2[nH]1" 75.1 µM

Enter reported TGI observed with IGROV1 ovarian for "O[C@@H]1CCC[C@@H]2NC[C@@H](c3ccc4c(c3)OCO4)[C@H]12" > 100 µM

Enter reported TGI observed with IGROV1 ovarian for "Cc1c(Cl)cccc1N=NC(=O)NNc1cccc(Cl)c1C" 19.6 µM

Enter reported TGI observed with IGROV1 ovarian for COC(=O)C(Cc1ccc(N(C)C)cc1)(NC(=O)c1ccccc1)P(=O)(OC)OC (stereo not drawn) > 100 µM

Enter reported TGI observed with IGROV1 ovarian for "Cc1nc(/C=C2\C(=O)C=Cc3ccccc32)c(O)o1" > 100 µM

Enter reported TGI observed with IGROV1 ovarian for "Cc1nc(N)nc(N)c1CCCc1ccccc1" > 100 µM

====

tested on: NCI-H460 lung; assay: NCI tumour cell line growth inhibition, 48 h
Each record here notes measured TGI.
Record the value in µM, omitting the unit from your answer.

1. COc1cc2c(cc1Oc1c(Oc3c(O)c(OC)cc4c3C(CC(C)C)N(C)CC4)c(OC)cc3c1C(CC(C)C)N(C)CC3)C(CC(C)C)N(C)CC2 (centres undefined) : 1.69
2. Cn1c(-c2ccccc2)c(/C=C/C2=[N+](C)c3ccccc3C2(C)C)c2ccccc21 : 8.24
3. S=c1nc(N/N=C/c2cccs2)c2cn[nH]c2[nH]1 : 13.1

TGI lookup needed for "CC(C)C(=O)c1c(C(F)(F)F)n([O-])c2cc(F)c(F)cc2[n+]1=O" , thanks. 2.81

TGI lookup needed for "COC1=CC(=O)C=C(OC)C1=O" , thanks. 57.1

TGI lookup needed for "C[C@H]1CNC(=O)c2cnn3ccc(nc23)N[C@H](C)c2cc(F)ccc2O1" , thanks. 25.1

TGI lookup needed for COc1cc2cc(C(=O)N3CC(CCl)c4ccc(N(C)C)cc43)[nH]c2c(OC)c1OC (centres undefined) , thanks. 7.01

TGI lookup needed for "ClCc1ccccc1Cn1cnc2c(Cl)ncnc21" , thanks. 44.5

====

Each record here notes measured TGI.
tested on: MALME-3M melanoma; assay: NCI tumour cell line growth inhibition, 48 h
Record the value in µM, omitting the unit from your answer.

1. Cc1c(Cl)cccc1N=NC(=O)NNc1cccc(Cl)c1C : 30.8
2. Cc1ccc2c(c1)C(=O)c1c-2c(OCCCN(C)C)nc2ccccc12 : 3.29
3. NC(N)=NC(N)=NCCCc1ccco1 : 66.2
4. CC(C)C(=O)c1c(C(F)(F)F)n([O-])c2cc(F)c(F)cc2[n+]1=O : 2.21
5. Cc1nc2c(cc1OCc1ccccc1)C(=O)C1=C(C2=O)C2OC(=O)CC2OC1(C)C (configuration not stated) : 2.25
6. C[C@H]1COCCN1c1cc(C2(S(=O)(=O)C3CC3)CC2)nc(-c2ccc(NC(=S)NCCO)cc2)n1 : 0.0437

TGI lookup needed for "Nc1nc2cc(CC[C@H]3C[C@@H](n4ccc5c(N)ncnc54)[C@H](O)[C@@H]3O)ccc2cc1Br" , thanks. 21.5

TGI lookup needed for CCCCc1ccc(Nc2nc(Cl)c3ccn(C4CC(Oc5ccc(C)cc5)C(COc5ccc(C)cc5)O4)c3n2)cc1 (configuration not stated) , thanks. 32.9

TGI lookup needed for "COC1=CC(c2ccc[nH]2)=N/C1=C\c1[nH]c(C)c(CC(=O)OCc2ccccc2)c1C" , thanks. 2.1

TGI lookup needed for "O=C(c1ccccc1)c1c(C(F)(F)F)n([O-])c2cc(C(F)(F)F)ccc2[n+]1=O" , thanks. 3.33

TGI lookup needed for CCOc1ccc(C(C)c2cc3c(cc2OC)OCO3)cc1 (configuration not stated) , thanks. 89.7

TGI lookup needed for "CN(CCCNC(=O)c1nn(C)c2c1Cc1ccccc1-2)CCCNC(=O)c1nn(C)c2c1Cc1ccccc1-2" , thanks. 37.2

TGI lookup needed for CN(C)CCCC1(c2ccc(F)cc2)OCc2cc(-c3cc4ccccc4s3)ccc21 (configuration not stated) , thanks. 2.98

====

Each record here notes measured TGI.
system: MALME-3M melanoma; assay: NCI tumour cell line growth inhibition, 48 h

1. Nc1ccc2ccc(N3CCNCC3)nc2n1 : > 100 µM
2. O[C@@H]1CCC[C@@H]2NC[C@@H](c3ccc4c(c3)OCO4)[C@H]12 : > 100 µM
3. NCCCNOCCCN : > 100 µM

TGI lookup needed for O=C(OC1CN2CCC1CC2)N(c1ccccc1)c1ccccc1 (stereo unspecified) , thanks. > 100 µM

TGI lookup needed for "CO/N=C(\C([O-])=N\[n+]1cnn(CC(=O)OC(C)(C)C)c1)c1csc(NC(c2ccccc2)(c2ccccc2)c2ccccc2)n1" , thanks. > 10 µM

TGI lookup needed for Cc1cc2c(cc1C)C(=O)C1(C2)Cc2cc3c(cc2C1=O)CCC3 (stereo unspecified) , thanks. > 100 µM

====

test system: SK-MEL-5 melanoma; assay: NCI tumour cell line growth inhibition, 48 h
EXPERIMENTAL_ENDPOINT: GI50

Would you please look over these solved cases?
1. COC(=O)c1c2c(c(C)[n+]([O-])c1C)C(=O)C=C(NCc1cccc(Cl)c1)C2=O : 167 nM
2. C=C1C(=O)O[C@H]2[C@H]1CC/C(COC(=O)OC/C1=C/CC[C@@]3(C)O[C@H]3[C@H]3OC(=O)[C@@H](CN(C)C)[C@@H]3CC1)=C\CC[C@@]1(C)O[C@@H]21 : 3970 nM
3. CCCCCC[C@@H](C)NC(=O)c1ccc(Nc2nc3ccccc3c3occc23)cc1 : 1660 nM
4. Cc1cc(OCCOCCC(F)(F)P(=O)(O)O)ccc1CCc1cnc2c(N)nc3cc(CCC(=O)O)ccc3c2c1 : > 100000 nM
5. O=C(CI)Nc1ccc(O)c2ccccc12 : 1630 nM
6. C=C1C(=O)O[C@H]2[C@H]1CC/C(Cn1cc(-c3ccc(F)cc3)nn1)=C\CC[C@@]1(C)O[C@@H]21 : 1740 nM
7. Cc1nc2ccccn2c1NC(=O)NNC(=S)Nc1ccc(F)cc1 : > 100000 nM
8. O=c1oc2cc(OC/C(=N/O)c3ccc(F)cc3)ccc2c2ccccc12 : 20900 nM
9. C[n+]1c2ccccc2nc2ccccc21 : 1030 nM

The record that follows has no GI50 shown yet.
GI50 lookup needed for "CC(=O)O[C@H]1C(=O)[C@@]2(C)[C@H]([C@H](OC(=O)c3ccccc3)[C@]3(O)C[C@H](OC(=O)[C@H](OC(=O)OC[C@H]4COC(C)(C)O4)[C@@H](NC(=O)c4ccccc4)c4ccccc4)C(C)=C1C3(C)C)[C@]1(OC(C)=O)CO[C@@H]1C[C@@H]2O" , thanks. 83.2 nM

====

Each record here notes measured TGI.
test system: EKVX NSCLC; experiment: NCI tumour cell line growth inhibition, 48 h

1. NC(=O)c1cccc(OCC(O)CO)c1 (stereo not drawn) : > 100 µM
2. CC1=NOC(=O)/C1=C/c1ccc([N+](=O)[O-])cc1 : > 100 µM

The record that follows has no TGI shown yet.
Enter reported TGI observed with EKVX NSCLC for "CC(=O)/C=C/C1=C(c2csc3ccccc23)c2ccccc2CC1" > 100 µM

====

Each record here notes measured TGI.
test system: DU-145 prostate; assay: NCI tumour cell line growth inhibition, 48 h

Would you please look over these solved cases?
1. O=C1CC(=O)NC(=NN2C(=O)CSC2C(=O)c2ccco2)N1 (stereo not given) : > 100 µM
2. CCN(CC)c1ccc(/C=C2\CCc3ccc([N+](=O)[O-])cc3C2=O)cc1 : > 100 µM
3. CN(O)C(=O)CCCC(=O)NCC(C)(C)CNC(=O)CCCC(=O)N(C)O : > 100 µM

TGI lookup needed for "O=c1[nH]nc(Cc2ccccc2)n1/N=C/c1cccnc1" , thanks. > 100 µM

TGI lookup needed for "COc1ccc(/C=C2\SC(=Nc3ccccc3)NC2=O)cc1" , thanks. 71.5 µM

TGI lookup needed for "Cn1c2ccccc2c2cc(N3CCCC3)c3c(c21)C(=O)N(c1ccccc1)C3=O" , thanks. > 100 µM

TGI lookup needed for "O=C(CI)Nc1ccc(O)c2ccccc12" , thanks. 3.87 µM

TGI lookup needed for CC([C@H]1CC=C2C3CCC4=C[C@@H](N(C)C)CC[C@]4(C)C3CC[C@@]21C)N(C)C (stereo not given in full) , thanks. 20.4 µM

TGI lookup needed for COc1ccc2c(c1OC)C(C(Cl)(Cl)Cl)N1CCc3cc4c(cc3C1=C2)OCO4 (stereo not given) , thanks. 84.7 µM

TGI lookup needed for "O=c1[nH]nc(Nc2ccccc2)c2nnn(C3CCCCC3)c12" , thanks. > 100 µM

TGI lookup needed for COC(=O)[C@]1(c2cc3ccccc3[nH]2)CC2CN(C(=O)OCc3ccccc3)C1CC2=O (stereo not given in full) , thanks. > 100 µM

TGI lookup needed for "NCCCNOCCCN" , thanks. > 100 µM

TGI lookup needed for "C=CC(=O)N1C/C(=C\c2ccc([N+](=O)[O-])cc2)C(=O)/C(=C/c2ccc([N+](=O)[O-])cc2)C1" , thanks. 2.36 µM

TGI lookup needed for COC(=O)C1=C(O)CCCC(C2CCCCC(=O)C2C(=O)OC)=C1 (stereo not given) , thanks. > 100 µM

TGI lookup needed for "Cc1c(Cl)cccc1NC(=O)/C=C/c1ccccc1" , thanks. > 100 µM
